tested on: 997726-040-R-J2-PDC tumor spheroids, viability; experiment: Anticancer human tumor 997726-040-R-J2-PDC patient-derived squamous cell lung carcinoma cell line growth inhibition [PI3K]; conditions: second compound 0.01 µM; first compound 1 µM; active compounds read low; spheroids with HUVEC and MSC;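 note: spheroids exposed to compounds for seven days before readout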
metric: viability, T/C (%)
Kindly answer with a numeric value in %, unit omitted.

// below: answered molecules
{"molecule": "CC(Cn1ccc(-c2ccc(C#N)c(Cl)c2)n1)NC(=O)c1cc(C(C)O)[nH]n1 (stereo not given) + COc1c(OCCCN2CCOCC2)ccc2c3n(c(=NC(=O)c4cnc(N)nc4)nc12)CCN3", "unit-of-measurement": "%", "viability, T/C": 56.1}
{"molecule": "Cn1nccc1Nc1nccc(-c2ccn(C(CO)c3ccc(Cl)c(F)c3)c(=O)c2)n1 (stereo not given) + COc1c(OCCCN2CCOCC2)ccc2c3n(c(=NC(=O)c4cnc(N)nc4)nc12)CCN3", "unit-of-measurement": "%", "viability, T/C": 43.9}
{"molecule": "CCCS(=O)(=O)Nc1ccc(F)c(C(=O)c2c[nH]c3ncc(-c4ccc(Cl)cc4)cc23)c1F + CC(Nc1ccc2c(c1)OCCn1cc(N3C(=O)OCC3C(F)F)nc1-2)C(N)=O", "unit-of-measurement": "%", "viability, T/C": 90.3}

Quick note, viability, T/C for CCN1CCN(Cc2ccc(Nc3ncc(F)c(-c4cc(F)c5nc(C)n(C(C)C)c5c4)n3)nc2)CC1 + CC(Nc1ccc2c(c1)OCCn1cc(N3C(=O)OCC3C(F)F)nc1-2)C(N)=O landed at 48.1

Entry CC1(C)CCC(CN2CCN(c3ccc(C(=O)NS(=O)(=O)c4ccc(NCC5CCOCC5)c([N+](=O)[O-])c4)c(Oc4cnc5[nH]ccc5c4)c3)CC2)=C(c2ccc(Cl)cc2)C1 + COc1c(OCCCN2CCOCC2)ccc2c3n(c(=NC(=O)c4cnc(N)nc4)nc12)CCN3 ; viability, T/C = 60.7

Sourced from PubChem BioAssay AID1963964
